Hey, just so you know, these numbers are from PubChem BioAssay AID1159580.

Answer each item with its documented normalized growth.
- test: chemical genetic growth profiling, strain panel (AID 1159580);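 also: tested at 20 µM; growth read once vehicle control cultures reached saturation at 30 °C; 1 = growth at the plate median or of vehicle wells; lower values mean less growth of the strain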
- setup.conditions: S. cerevisiae deletion strains, growth OD, locus YPL256C, strain CLN2, active compounds read low
Out of some 5,500 compounds screened, about 2,000 (36%) were called active. Another 18% or so got no clear call; they are omitted. The list shows a part of the results.
Answers are plain numbers.

Example entries begin here.
stdin: Look up normalized growth: CCCCCCCC1CCC/C1=N/OC(=O)c1cccs1 (stereo unspecified)
stdout: 0.858

stdin: // next record c1ccc2[nH]c(-c3cscn3)nc2c1
stdout: 0.957

stdin: Note, next up: CC1=C(/C=C/C(C)=C/C=C/C(C)=C/C=C/C=C(C)/C=C/C=C(C)/C=C/C2=C(C)CCCC2(C)C)C(C)(C)CCC1
stdout: 0.994

stdin: Would you mind doing CC(COc1ccccc1)N(CCCl)Cc1ccccc1 (stereo unspecified) as well?
stdout: 0.981

stdin: Follow-up entry: CCCc1cc(OC)c2c(c1)OCO2
stdout: 0.953

Now consider a different compound.
stdin: Entry under review: O=C1/C(=C/c2c(F)cccc2Cl)Cc2ccccc21 . Reported normalized growth?
stdout: 0.887

====

Kindly state normalized growth for each of the entries shown.
- test: chemical genetic growth profiling, strain panel (AID 1159580);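 also: tested at 20 µM; growth read once vehicle control cultures reached saturation at 30 °C; 1 = growth at the plate median or of vehicle wells; lower values mean less growth of the strain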
- setup.conditions: S. cerevisiae deletion strains, growth OD, locus YPL241C, strain CIN2, active compounds read low
Out of some 5,500 compounds screened, about 2,000 (36%) were called active. Not shown: some 18% with an inconclusive outcome. This is one part of the list.

Sample records with normalized growth:
stdin: Recorded normalized growth of COC(=O)c1cc(OC)c(OC)cc1NS(=O)(=O)c1ccc(C)cc1 , please.
stdout: 1.01 (inactive)

stdin: Input c1cc2c(cc1[C@H]1OC[C@H]3[C@@H]1CO[C@H]3c1ccc3c(c1)OCO3)OCO2
stdout: 0.945 (inactive)

stdin: Try the compound O=C1OCCN1/N=C\c1ccc([N+](=O)[O-])o1
stdout: 0.988 (inactive)

stdin: // next record COc1cc(N=Cc2ccc3c(c2)OCO3)c(OC)cc1Cl
stdout: 1.02 (inactive)

stdin: Can you handle CCOC(=O)c1ccc(N)cc1 next?
stdout: 1 (inactive)

Note: attention shifts to another entry.
stdin: // lookup normalized growth for COS(C)(=O)=O
stdout: 1 (inactive)

====

- test: chemical genetic growth profiling, strain panel (AID 1159580);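 also: tested at 20 µM; growth read once vehicle control cultures reached saturation at 30 °C; 1 = growth at the plate median or of vehicle wells; lower values mean less growth of the strain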
- setup.conditions: S. cerevisiae deletion strains, growth OD, locus YKL160W, strain elf1
Out of some 5,500 compounds screened, about 2,000 (36%) were called active. Not shown: some 18% with an inconclusive outcome. Rule as the data show it: active = normalized growth mostly below about 0.91 (no sharp cut-off); inconclusive = no clear call, values can overlap the other calls; inactive = mostly above about 0.92. The list shows a part of the results.
Reply using exactly one outcome from yes (active), no (inactive)

stdin: For C#C[C@]1(O)CCC2C3CCc4cc(O)ccc4C3CC[C@@]21C (stereo not given in full) , which call appears in the assay record?
stdout: no

stdin: Now consider OC1CCCCC1N1CCC(c2ccccc2)CC1 (stereo not given) .
stdout: no

stdin: Could you do the same for COC(=O)[C@H]1[C@H]2C[C@@H]3c4[nH]c5cc(OC)ccc5c4CCN3C[C@H]2C[C@@H](OC(=O)c2cc(OC)c(OC)c(OC)c2)[C@@H]1OC , please?
stdout: no

stdin: Same thing, different compound: CC1(C)CC2C1CCC1(C)OC1CCC2(C)O (stereo not given)
stdout: no

stdin: C=CCc1cc(OC)c2c(c1OC)OCO2 ?
stdout: no

stdin: Then this compound: O=C(O)c1cc(=O)c2c(OCC(O)COc3cccc4oc(C(=O)O)cc(=O)c34)cccc2o1
stdout: no

stdin: Okay, and CC(=O)O[C@H]1C[C@@H](OC(C)=O)C(C)(C)C2C[C@@H](OC(C)=O)[C@]3(C)C(CC[C@@]4(C)[C@H](c5ccoc5)C(=O)[C@H]5O[C@]543)[C@]21C (stereo not given in full) ?
stdout: no

stdin: What do you have for CCC(COC(=O)c1cc(OC)c(OC)c(OC)c1)(c1ccccc1)N(C)C (stereo not given) ?
stdout: no

Others:
stdin: Record request — test call for CCCCC(CC)CN=C(N)NC(N)=NCCCCCCN=C(N)NC(N)=NCC(CC)CCCC (stereo not given)
stdout: yes

stdin: Then O=C(O)CCCCC1SCC2NC(=O)NC21 (stereo not given) ?
stdout: no

stdin: Another compound to check: C#C[C@]1(O)CCC2C3CCc4cc(OC)ccc4C3CC[C@@]21C (stereo not given in full)
stdout: no

stdin: Moving on to C=CC1=C(C)/C(=C/c2[nH]c(Cc3[nH]c(/C=C4\NC(=O)C(C)=C4C=C)c(C)c3CCC(=O)O)c(CCC(=O)O)c2C)NC1=O
stdout: no

stdin: Another compound to look at: CC[C@@H]1[C@@H](O)N2C3C[C@H]1C1C(O)[C@]4(C[C@@H]12)c1ccccc1N(C)[C@@H]34 (stereo not given in full)
stdout: no

stdin: And what about the compound C[C@]12CCC3c4ccc(OS(=O)(=O)O)cc4CCC3C1CCC2=O (stereo not given in full) ?
stdout: no

stdin: And the next one, COc1ccc(-c2cc(C(F)F)nn2-c2ccc(S(N)(=O)=O)cc2)cc1F ?
stdout: no

stdin: Try the compound COc1ccc(/C=C/c2cc(O)cc(O)c2)cc1
stdout: no

stdin: CC12CCCC(O)(C1)C1CC(C)(C)C1CC2 (stereo not given) ?
stdout: no

stdin: Quick one: O=c1cccc2n1C[C@H]1CNCC2C1
stdout: no

stdin: Then what about the compound CCCc1cc(OC)c2c(c1)OCO2 ?
stdout: no

stdin: Subsequent entry: NC(=O)c1cc[n+](CC2=C(C(=O)O)N3C(=O)C(NC(=O)C(c4ccccc4)S(=O)(=O)[O-])C3SC2)cc1 (stereo not given)
stdout: no
